# subject-of-test: CK1δ (Homo sapiens)
# Sequence (P48730 whole entry): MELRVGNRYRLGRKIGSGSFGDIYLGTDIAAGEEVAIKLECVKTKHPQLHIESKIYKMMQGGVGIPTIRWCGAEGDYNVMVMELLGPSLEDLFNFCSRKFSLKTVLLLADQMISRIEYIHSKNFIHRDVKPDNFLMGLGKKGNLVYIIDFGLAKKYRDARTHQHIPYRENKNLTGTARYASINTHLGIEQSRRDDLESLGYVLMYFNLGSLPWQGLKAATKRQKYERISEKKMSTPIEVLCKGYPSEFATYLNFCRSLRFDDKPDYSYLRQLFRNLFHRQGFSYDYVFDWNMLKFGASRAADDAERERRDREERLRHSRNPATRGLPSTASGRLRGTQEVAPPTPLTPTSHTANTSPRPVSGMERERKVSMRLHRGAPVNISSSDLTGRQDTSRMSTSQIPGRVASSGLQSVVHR
# assay: CK1δ inhibition IC50
# Format: biochemical
# condition-summary: Table 7; p38 compounds; read-out: IC50 CK1d
quantity-kind: pIC50
Here pIC50 is given on a logarithmic scale as minus log10 of the concentration in mol/L.

Exercise: If you can, please state the reported pIC50 value of CC(C)(C)Cn1c(N)nc2ccc(-c3[nH]c(C(C)(C)C)nc3-c3ccc(F)cc3)nc21 [LY2228820, reference compound] .
Key: 5.56

###

# Test system: DUX4
# assay: high-content immunocytochemistry assay of endogenous DUX4 expression in differentiating primary FSHD myotubes
# Type: cell-based, human
# condition-summary: Homo sapiens, Myotube, 72 h, read-out: DUX4 EC50
quantity-kind: pEC50
Here pEC50 is given on a logarithmic scale as minus log10 of the concentration in mol/L.

Exercise: If you can, please state the reported pEC50 value of CNCc1cc(-c2cn(C)nc2-c2ccc(F)cc2)ccn1 [Nr. 9] .
Key: 5.19

***
Exercise: If you can, please state the reported pEC50 value of CN1Cc2nccc(-c3cn(C)nc3-c3ccc(F)cc3)c2C1=O [Nr. 5] .
Key: 5.17

###

The following compounds are listed with their measured pIC50 values.
# subject-of-test: CK1δ (Homo sapiens)
# assay: CK1δ inhibition IC50
# Format: biochemical
# condition-summary: Table 6; read-out: IC50 CK1δ
Here pIC50 is given on a logarithmic scale as minus log10 of the concentration in mol/L.

Exercise: If you can, please state the reported pIC50 value of Fc1ccc(-c2nn(CC(F)(F)F)cc2-c2ccnc3[nH]ccc23)cc1 .
Key: 7.26

Exercise: If you can, please state the reported pIC50 value of Fc1ccc(-c2nc3ccc(N4CCNCC4)nn3c2-c2ccnnc2)cc1 .
Key: 7.24

Exercise: If you can, please state the reported pIC50 value of CN1CCN(c2ccc3nc(-c4ccc(F)cc4)c(-c4ccncc4)n3n2)CC1 .
Key: 7.54

Exercise: If you can, please state the reported pIC50 value of Fc1ccc(-c2nc3ccc(N4CCNC5(CC5)C4)nn3c2-c2ccncc2)cc1 .
Key: 7.24

Would you kindly look at the next entry?
Exercise: If you can, please state the reported pIC50 value of Fc1ccc(-c2nc3sc(N4CCNCC4)nn3c2-c2ccncc2)cc1 .
Key: 7.24

###

# subject-of-test: CK1α (Homo sapiens)
# assay: CK1α inhibition IC50
# Assay type: biochemical
# condition-summary: Table 4; read-out: CK1 a IC50
The following compounds are listed with their measured log10(IC50) values.
Friendly reminder: values = log10 of IC50, unit nM.

Exercise: What is its log10(IC50) for CK1α (Homo sapiens)? Entry: Fc1ccc(-c2nc3ccc(N4CCC(N5CCCC5)CC4)nn3c2-c2ccncc2)cc1
Key: 2.43

Exercise: What is its log10(IC50) for CK1α (Homo sapiens)? Entry: OCCC#Cc1nc(-c2ccc(F)cc2)c(-c2ccncc2)n1CCCc1ccccc1 [RWJ 67657, reference compound]
Key: 3.26

Exercise: What is its log10(IC50) for CK1α (Homo sapiens)? Entry: Fc1ccc(-c2nn(CC(F)(F)F)cc2-c2ccnc3[nH]ccc23)cc1
Key: 2.27

Exercise: What is its log10(IC50) for CK1α (Homo sapiens)? Entry: Fc1ccc(-c2nc3sc(N4CCNCC4)nn3c2-c2ccncc2)cc1
Key: 2.52

Exercise: What is its log10(IC50) for CK1α (Homo sapiens)? Entry: Fc1ccc(-c2nc3ccc(N4CCNC5(CC5)C4)nn3c2-c2ccncc2)cc1
Key: 1.79

***
Exercise: What is its log10(IC50) for CK1α (Homo sapiens)? Entry: CC1(C)CN(c2ccc3nc(-c4ccc(F)cc4)c(-c4ccncc4)n3n2)CCN1
Key: 1.47

Exercise: What is its log10(IC50) for CK1α (Homo sapiens)? Entry: CN1CCN(c2ccc3nc(-c4ccc(F)cc4)c(-c4ccncc4)n3n2)CC1
Key: 1.81

Exercise: What is its log10(IC50) for CK1α (Homo sapiens)? Entry: Cn1cc(-c2ccnc3[nH]ccc23)c(-c2ccc(F)cc2)n1
Key: 2.29

###

The following compounds are listed with their measured log10(IC50) values.
# subject-of-test: CK1α (Homo sapiens, UniProt P48729)
# Sequence (P48729 whole entry): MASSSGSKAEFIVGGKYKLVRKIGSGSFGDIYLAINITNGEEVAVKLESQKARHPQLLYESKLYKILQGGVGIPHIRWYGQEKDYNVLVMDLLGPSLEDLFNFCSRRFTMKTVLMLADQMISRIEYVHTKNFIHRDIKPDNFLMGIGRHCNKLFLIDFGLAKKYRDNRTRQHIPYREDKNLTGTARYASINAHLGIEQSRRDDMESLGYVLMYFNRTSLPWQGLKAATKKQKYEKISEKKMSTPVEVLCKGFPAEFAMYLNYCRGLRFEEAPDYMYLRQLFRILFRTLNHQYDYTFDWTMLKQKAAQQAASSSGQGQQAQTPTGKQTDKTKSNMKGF
# assay: CK1α inhibition IC50
# Assay type: biochemical
# condition-summary: Table 6; read-out: IC50 CK1α
Friendly reminder: values = log10 of IC50, unit nM.

# count of solved cases: 2
Exercise: If you can, please state the reported log10(IC50) value of Cn1cc(-c2ccnc3[nH]ccc23)c(-c2ccc(F)cc2)n1 [Nr. 16] .
Key: 2.29

Exercise: If you can, please state the reported log10(IC50) value of Fc1ccc(-c2nc3ccc(N4CCNCC4)nn3c2-c2ccnnc2)cc1 [Nr. 22] .
Key: 2.29

Would you kindly look at the next entry?
Exercise: If you can, please state the reported log10(IC50) value of Fc1ccc(-c2nn(CC(F)(F)F)cc2-c2ccnc3[nH]ccc23)cc1 [Nr. 20] .
Key: 2.27

###

# subject-of-test: UniProtKB Q16539
# Sequence (Q16539 whole entry): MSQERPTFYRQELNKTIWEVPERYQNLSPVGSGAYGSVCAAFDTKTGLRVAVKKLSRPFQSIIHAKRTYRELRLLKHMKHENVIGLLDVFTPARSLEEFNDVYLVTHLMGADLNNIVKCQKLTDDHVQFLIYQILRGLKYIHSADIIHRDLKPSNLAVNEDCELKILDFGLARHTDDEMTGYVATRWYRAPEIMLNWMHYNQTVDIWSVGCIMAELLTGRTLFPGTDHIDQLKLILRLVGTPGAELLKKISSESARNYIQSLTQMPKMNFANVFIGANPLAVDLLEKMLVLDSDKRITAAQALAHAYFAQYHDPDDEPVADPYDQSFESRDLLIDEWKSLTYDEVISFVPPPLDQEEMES
# assay: p38α inhibition IC50
# Assay type: biochemical
# condition-summary: Table 4; read-out: p38a IC50
The following compounds are listed with their measured pIC50 values.
Here pIC50 is given on a logarithmic scale as minus log10 of the concentration in mol/L.

Exercise: If you can, please state the reported pIC50 value of Cc1cc(-c2cn(C)nc2-c2ccc(F)cc2)ccn1 [Nr. 19] .
Key: 6.35

Exercise: If you can, please state the reported pIC50 value of CN1CCN(c2ccc3nc(-c4ccc(F)cc4)c(-c4ccncc4)n3n2)CC1 [Nr. 2] .
Key: 7.64

Exercise: If you can, please state the reported pIC50 value of Nc1nccc(-c2c(-c3ccc(F)cc3)ncn2C2CCN(Cc3ccon3)CC2)n1 [PF-5006739, reference compound] .
Key: 7.13

Exercise: If you can, please state the reported pIC50 value of OCCC#Cc1nc(-c2ccc(F)cc2)c(-c2ccncc2)n1CCCc1ccccc1 [RWJ 67657, reference compound] .
Key: 7.80

Exercise: If you can, please state the reported pIC50 value of Fc1ccc(-c2nc3ccc(N4CCNCC4)nn3c2-c2ccnnc2)cc1 [Nr. 22] .
Key: 6.39

###

# subject-of-test: CK1δ (Homo sapiens)
# assay: CK1δ inhibition IC50
# Format: biochemical
# condition-summary: Table 4; read-out: CK1 d IC50
quantity-kind: IC50 (nM)
Could you give me the number in nM? Just the number is fine.

# count of solved cases: 4
Exercise: If you can, please state the reported IC50 value of Cn1cc(-c2ccncc2)c(-c2ccc(F)cc2)n1 [Nr. 17] .
Key: 36.1

Exercise: If you can, please state the reported IC50 value of Nc1nccc(-c2c(-c3ccc(F)cc3)ncn2C2CCN(Cc3ccon3)CC2)n1 [PF-5006739, reference compound] .
Key: 19.8

Exercise: If you can, please state the reported IC50 value of Fc1ccc(-c2nc3ccc(N4CCNC5(CC5)C4)nn3c2-c2ccncc2)cc1 [Nr. 21] .
Key: 58.5

Exercise: If you can, please state the reported IC50 value of Fc1ccc(-c2nc3sc(N4CCNCC4)nn3c2-c2ccncc2)cc1 [Nr. 24] .
Key: 55.7

Would you kindly look at the next entry?
Exercise: If you can, please state the reported IC50 value of Fc1ccc(-c2nc3ccc(N4CCNCC4)nn3c2-c2ccnnc2)cc1 [Nr. 22] .
Key: 57.7

###

# subject-of-test: CK1ε (Homo sapiens, UniProt P49674)
# Sequence (P49674 whole entry): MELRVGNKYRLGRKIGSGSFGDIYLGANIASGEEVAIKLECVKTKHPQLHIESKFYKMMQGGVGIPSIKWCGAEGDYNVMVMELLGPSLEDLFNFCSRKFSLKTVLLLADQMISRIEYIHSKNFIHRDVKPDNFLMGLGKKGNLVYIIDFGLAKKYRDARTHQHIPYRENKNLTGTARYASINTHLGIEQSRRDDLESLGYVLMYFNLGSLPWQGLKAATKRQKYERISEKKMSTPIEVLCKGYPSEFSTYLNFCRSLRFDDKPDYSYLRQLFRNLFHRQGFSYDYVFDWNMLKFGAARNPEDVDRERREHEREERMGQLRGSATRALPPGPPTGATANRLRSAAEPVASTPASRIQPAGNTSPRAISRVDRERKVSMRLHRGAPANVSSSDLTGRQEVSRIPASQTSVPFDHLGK
# assay: CK1ε inhibition IC50
# Assay type: biochemical
# condition-summary: Table 4; read-out: CK1 e IC50
quantity-kind: IC50 (nM)
Could you give me the number in nM? Just the number is fine.

# count of solved cases: 2
Exercise: If you can, please state the reported IC50 value of Nc1nccc(-c2c(-c3ccc(F)cc3)ncn2C2CCN(Cc3ccon3)CC2)n1 [PF-5006739, reference compound] .
Key: 26.8

Exercise: If you can, please state the reported IC50 value of CC1(C)CN(c2ccc3nc(-c4ccc(F)cc4)c(-c4ccncc4)n3n2)CCN1 [Nr. 1] .
Key: 12.4

Would you kindly look at the next entry?
Exercise: If you can, please state the reported IC50 value of Cn1cc(-c2ccnc3c2C(=O)N(C2CCOCC2)C3)c(-c2ccc(F)cc2)n1 [Nr. 6] .
Key: 72.4

###

The following molecules are listed with their measured pEC50 values.
# Tested on: DUX4
# assay: high-content immunocytochemistry assay of endogenous DUX4 expression in differentiating primary FSHD myotubes
# Format: cell-based, human
# condition-summary: Homo sapiens, Myotube, 15 h, read-out: DUX4 EC50
Here pEC50 is given on a logarithmic scale as minus log10 of the concentration in mol/L.

Exercise: What is its pEC50 for DUX4? Entry: Fc1cccc(-n2cnc3c(NCc4nc5ccc(F)c(F)c5[nH]4)nc(N4CCOCC4)nc32)c1 [SR-3029, reference compound]
Key: 7.30

Would you kindly look at the next entry?
Exercise: What is its pEC50 for DUX4? Entry: CN1Cc2nccc(-c3cn(C)nc3-c3ccc(F)cc3)c2C1=O
Key: 5.72
